The reported numbers originate from paper PMC9482650.

# Study system: AHNAK1, Q09666
# Sequence (Q09666 4-100): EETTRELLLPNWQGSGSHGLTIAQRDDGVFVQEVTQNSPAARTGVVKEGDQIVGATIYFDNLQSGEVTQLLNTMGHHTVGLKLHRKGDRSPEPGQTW
# Measurement protocol: holdup assay
# Set-up: key: below the threshold = too weak to quantify, mostly under pKd 3.1 to 4
# Test context: plain residues with an end cap or a label only (N-terminal biotin on a linker: ado-ado)
Assay readout: pKd

>>> readout_value("TETASVCTKV [SLC23A1, Q9UHI7]")
"below the threshold"
>>> readout_value("EEPEERHTEL [CES2, O00748]")
"below the threshold"
>>> readout_value("FVHPILQSAV [PRKCA, P17252]")
"below the threshold"
>>> readout_value("QKNKDKEYYV [NRXN3_rs746444206, Q9Y4C0]")
"below the threshold"
